Target: T1, human GIP receptor (human, UniProt P48546 22-466)
T1 sequence (looked up): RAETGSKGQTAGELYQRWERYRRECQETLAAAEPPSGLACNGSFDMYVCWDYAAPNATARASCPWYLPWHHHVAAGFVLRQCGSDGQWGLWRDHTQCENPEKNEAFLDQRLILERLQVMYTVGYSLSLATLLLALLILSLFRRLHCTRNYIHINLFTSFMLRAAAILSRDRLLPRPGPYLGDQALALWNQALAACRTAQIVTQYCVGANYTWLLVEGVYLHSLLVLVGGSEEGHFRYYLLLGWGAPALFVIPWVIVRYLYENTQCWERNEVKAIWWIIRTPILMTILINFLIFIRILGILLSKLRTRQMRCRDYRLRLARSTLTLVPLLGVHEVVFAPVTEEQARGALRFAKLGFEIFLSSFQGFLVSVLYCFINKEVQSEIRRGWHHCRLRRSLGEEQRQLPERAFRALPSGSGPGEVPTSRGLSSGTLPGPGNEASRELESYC
Experiment: cell-based or functional assay
Bridges are numbered along the chain shown (N, C = ends). Where no end group is shown, it is not given here. [ ]: non-standard residue; d: D form. The star is where a group is joined. Acetyl(2-(4-imidazolyl)) = O=C(Cc1c[nH]cn1)*; Aib = CC(C)(N)C(=O)O
OBSERVATION_TYPE: In vitro activity compared with native peptide (%) vs. GIP
Return type: number; implicit unit %.

Field In vitro activity compared with native peptide (%) vs. GIP (entry Y[Aib]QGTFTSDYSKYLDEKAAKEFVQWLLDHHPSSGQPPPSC (bridge 16-20) [Triple agonist of SEQ ID NO: 75] ) reads 18

Recorded In vitro activity compared with native peptide (%) vs. GIP (binder Y[Aib]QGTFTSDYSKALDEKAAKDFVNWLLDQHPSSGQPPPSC (bridge 16-20) [Triple agonist of SEQ ID NO: 102] ): 58

Form field In vitro activity compared with native peptide (%) vs. GIP, entry {Acetyl(2-(4-imidazolyl))}-[Aib]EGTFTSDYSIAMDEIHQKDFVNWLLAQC (bridge 15-19) [Triple agonist of SEQ ID NO: 83] : 0.4

Recorded In vitro activity compared with native peptide (%) vs. GIP (binder Y[Aib]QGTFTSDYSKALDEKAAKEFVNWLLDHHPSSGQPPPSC (bridge 16-20) [Triple agonist of SEQ ID NO: 98] ): 47.1

// sample {Acetyl(2-(4-imidazolyl))}-[Aib]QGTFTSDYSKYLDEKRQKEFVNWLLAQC (bridge 15-19) [Triple agonist of SEQ ID NO: 86] , its In vitro activity compared with native peptide (%) vs. GIP was 0.2
